Listing: GI50 of selected molecules
Test system: MDA-MB-435
EXPERIMENT SUMMARY: NCI tumour cell line growth inhibition, 48 h
Calls of active or inactive are those of the source. Rule as the data show it: active = GI50 up to about 1.1 µM and inactive = higher.

{"columns": ["MOLECULE", "GI50"],
 "data": [
  ["CCc1ccccc1N1CCN(C(=O)c2cc(OC)c(OC)c(OC)c2)CC1", "< 0.01 µM (active)"],
  ["COc1cc2c[n+](C)c3c4ccccc4ccc3c2cc1OC.COc1cc2cnc3c4ccccc4ccc3c2cc1OC", "2.87 µM (inactive)"],
  ["CSC1=N/C(=C\\c2ccc(C)cc2)C(=O)N1", "> 100 µM (inactive)"],
  ["CN(C)C1(N(C)C)Oc2c(c(=O)n(C)c(=O)n2C)C(c2ccccc2)C1(F)F (stereo unspecified)", "> 100 µM (inactive)"],
  ["c1ccc2c(c1)Oc1cccc3cccc-2c13", "> 100 µM (inactive)"],
  ["Cc1cc2c(cc1C)C(=O)c1ncccc1C2=O", "16.8 µM (inactive)"],
  ["O=C1CCCCC/C1=C\\c1cccc(F)c1", "55.2 µM (inactive)"],
  ["Cc1[nH]c2ncn(/N=C/c3ccccc3O)c(=N)c2c1Cc1ccccc1", "18.5 µM (inactive)"],
  ["CCN1CCC(O)(/C=C/c2ccc(C)cc2)C(C(=O)/C=C/c2ccc(C)cc2)C1 (stereo unspecified)", "2.93 µM (inactive)"],
  ["COc1cc(Cc2cc3c(c(C(=O)O)c2Br)OCO3)cc(OC)c1OC", "49.9 µM (inactive)"],
  ["Cc1nc(SCC(N)=O)c2sc(=S)n(-c3ccccc3)c2n1", "> 10 µM (inactive)"]
]}

====

Parameter GI50: see the listing below.
Test system: HT-29
EXPERIMENT SUMMARY: NCI tumour cell line growth inhibition, 48 h
The source made the active and inactive calls. No stated cut-off is given here; in the data, active = GI50 up to about 1.1 µM and inactive = higher.

{"columns": ["COMPOUND", "GI50"],
 "data": [
  ["Cc1nc(O)nc2nc3cc(Cl)cc(Cl)c3c(NC(C)(CO)CO)c12", "> 100 µM (inactive)"],
  ["COc1cc(C2C(=O)C(Cl)N2Nc2nc(C)cc(O)n2)cc(OC)c1OC (stereo not given)", "23.8 µM (inactive)"],
  ["O=C(NC1C/C(=N/O)c2c(Br)sc(Br)c21)C(F)(F)F (stereo not given)", "26.9 µM (inactive)"],
  ["Nc1c2c(nc3ccccc13)-c1ccccc1CCC2", "10.3 µM (inactive)"],
  ["COCc1nc(N)nc(N2N=C(C)CC2(C)C)n1", "> 100 µM (inactive)"],
  ["CCCCCN(CCCCC)C(=O)[C@@H](CCC(=O)O)NC(=O)c1cc2ccccc2[nH]1", "46.6 µM (inactive)"],
  ["COC(=O)C1Cc2ccc3c(c2C1=O)CCCC3 (stereo not given)", "> 100 µM (inactive)"],
  ["N#Cc1c(-c2cccc(Br)c2)cc(-c2ccc(Cl)cc2)nc1N", "18.7 µM (inactive)"],
  ["C=C(C)C1C/C=C(/C)CCCC2(CCC3=C(CC(C(=C)C)C/C=C(/C)CCC3)O2)C(=O)C1 (stereo not given)", "> 100 µM (inactive)"],
  ["c1ccc([P+](CC[P+](c2ccccc2)(c2ccccc2)c2ccccc2)(c2ccccc2)c2ccccc2)cc1", "23.4 µM (inactive)"]
]}

====

System: 786-0
EXPERIMENT SUMMARY: NCI tumour cell line growth inhibition, 48 h
Activity calls are given as the source filed them. Rule as the data show it: active = GI50 up to about 1.1 µM and inactive = higher.

{"columns": ["MOLECULE", "SUBJECT OF TEST", "GI50"],
 "data": [
  ["CCCCc1ccc(Nc2nc(Cl)c3c(ncn3COCCOC(C)=O)n2)cc1", "786-0", "20.1 µM (inactive)"],
  ["COC(=O)C(CCCC1(c2ccccc2)OCCO1)C(C)=O (stereo not given)", "786-0", "> 100 µM (inactive)"],
  ["O=C(/C=C1\\Nc2ccccc2N\\C1=C\\C(=O)c1ccc(Cl)cc1)c1ccccc1", "786-0", "26 µM (inactive)"],
  ["COc1cc(/C=N/n2c(C)n[nH]c2=O)cc(OC)c1OC", "786-0", "> 100 µM (inactive)"],
  ["CCOC1OC(COC(=O)C(C)(C)C)C(O)CC1n1cc(C)c(=O)[nH]c1=O (stereo not given)", "786-0", "> 100 µM (inactive)"]
]}

====

compounds and their reported GI50
System: RPMI-8226
EXPERIMENT SUMMARY: NCI tumour cell line growth inhibition, 48 h
Activity calls are given as the source filed them. No stated cut-off is given here; in the data, active = GI50 up to about 1.1 µM and inactive = higher. Residues, ends and D or L forms follow the SMILES beside them.

{"columns": ["COMPOUND", "SUBJECT OF TEST", "GI50"],
 "data": [
  ["Cc1cnc(-c2c[nH]c3ccccc23)nc1-c1c[nH]c2ccccc12", "RPMI-8226", "3.9 µM (inactive)"],
  ["O=c1cc(-c2ccccc2)c2ccc(O)c(CN(CCCl)CCCl)c2o1", "RPMI-8226", "12.6 µM (inactive)"],
  ["COC(=O)C1=C(C(=O)OC)N(C(C)C)[C@H]2C(C(=O)OC)=C(C(=O)OC)N(C(C)C)[C@@H]12", "RPMI-8226", "84.1 µM (inactive)"],
  ["O=P(c1ccccc1)(c1ccccc1)c1ccc2c(c1)OCCOCCOCCOCCO2", "RPMI-8226", "> 100 µM (inactive)"],
  ["O=C1/C(=C/c2ccc(Br)s2)NC(=S)N1c1ccccc1", "RPMI-8226", "22.5 µM (inactive)"],
  ["N#CCC(=O)NC1C2CC3CC(C2)CC1C3 (centres undefined)", "RPMI-8226", "34.6 µM (inactive)"],
  ["COc1ccc(NS(=O)(=O)c2ccc(/N=C3\\C=C(Nc4ccc(S(=O)(=O)Nc5ccc(OC)nn5)cc4)C(=O)c4ccccc43)cc2)nn1", "RPMI-8226", "53.7 µM (inactive)"],
  ["O=C1CNNC(CSc2nc3ccc(I)cc3c(=O)n2Cc2ccccc2)=N1", "RPMI-8226", "22.6 µM (inactive)"],
  ["C=C1[C@@H](O)C[C@@]23CC[C@@H]4[C@@]5(C)CC[C@@H](OC(C)=O)C(C)(C)[C@@H]5C[C@@H](OC5OC(COC(C)=O)C(O)C(O)C5O)[C@@]4(C)C2=CC[C@H]3[C@H]1C (some centres undefined)", "RPMI-8226", "2.84 µM (inactive)"],
  ["CCC[C@@H](O)C[C@@H]1CCC[C@H](C[C@@H](O)CC)N1C", "RPMI-8226", "> 100 µM (inactive)"],
  ["O=C1OC2C=CCC1C2 (centres undefined)", "RPMI-8226", "> 100 µM (inactive)"],
  ["COC(=O)c1sc2ncc3c(c2c1N)CCCCCC3", "RPMI-8226", "> 100 µM (inactive)"],
  ["CCC(C)C(NC(=O)C1CCCN1)C(=O)NC(C(=O)NCC(=O)NC(CC(N)=O)C(=O)NC(CC(C)C)C(=O)NC(CC(C)C)C(=O)NC(CCCCN)C(N)=O)C(C)C (centres undefined) (H-PIVGNLLK-NH2; configuration not given here)", "RPMI-8226", "> 75 µM (inactive)"],
  ["CSC1=N/C(=C\\c2ccc(C)cc2)C(=O)N1", "RPMI-8226", "> 100 µM (inactive)"],
  ["O=C(/C=C\\c1ccccc1)N1CCc2ccccc2C1", "RPMI-8226", "23.5 µM (inactive)"],
  ["CS/C(=N\\C(=S)Nc1ccccc1)Nc1ccccc1", "RPMI-8226", "12.8 µM (inactive)"],
  ["COc1ccc(/C=N/n2c(C)nc3c(sc(=S)n3-c3ccccc3)c2=O)cc1", "RPMI-8226", "27 µM (inactive)"],
  ["O=C1CC(=O)N(CCc2ccccc2)S(=O)(=O)N1CCc1ccccc1", "RPMI-8226", "24.4 µM (inactive)"],
  ["CO[C@H]1C=C[C@@]23c4cc5c(cc4CO[C@]2(O)CN(C)[C@H]3C1)OCO5", "RPMI-8226", "> 100 µM (inactive)"]
]}

====

Overview of reported GI50 across a group of compounds:
Test system: DU-145
EXPERIMENT SUMMARY: NCI tumour cell line growth inhibition, 48 h
Active and inactive are the calls of the source. Rule as the data show it: active = GI50 up to about 1.1 µM and inactive = higher.

{"columns": ["COMPOUND", "GI50"],
 "data": [
  ["COC(=O)C1CC2C=CC1N(C(=O)OCc1ccccc1)C2 (stereo unspecified)", "> 100 µM (inactive)"],
  ["CCOC(=O)C1=c2[nH]c3cccc4cccc(c43)n2C=C(C(C)=O)C1CC(C)=O (stereo unspecified)", "> 100 µM (inactive)"],
  ["O=C1OC2C=CCC1C2 (stereo unspecified)", "> 100 µM (inactive)"],
  ["COc1ccc(C(OCC2OC3(COC(c4ccccc4)(c4ccc(OC)cc4)c4ccc(OC)cc4)C(Oc4nc(=O)ccn43)C2O)(c2ccccc2)c2ccc(OC)cc2)cc1 (stereo unspecified)", "> 100 µM (inactive)"],
  ["COC(=O)c1c(O)ccc2c1c1c(n2Cc2ccccc2OC)C(=O)c2ccccc2C1", "> 100 µM (inactive)"],
  ["N#C/C(=C/NC(=S)Nc1ccc(S(N)(=O)=O)cc1)C(N)=O", "> 100 µM (inactive)"],
  ["C=C(CCC(C(=O)O)C1CCC2(C)C3=C(CCC12C)C1(C)CCC(O)C(C)(C)C1CC3)C(C)C (stereo unspecified)", "> 100 µM (inactive)"],
  ["C/C(=C/CNc1ncnc2c1ncn2CCC(=O)O)CO", "> 100 µM (inactive)"],
  ["Cc1ccc(C2SCC(=O)N2NC(=O)c2ccncc2)s1 (stereo unspecified)", "> 100 µM (inactive)"],
  ["COC1OC(CS(=O)(=O)O)C(O)C(O)C1O (stereo unspecified)", "> 100 µM (inactive)"],
  ["CC(C)(C)C(=O)OCC1C(=O)OCC1C(=O)N1Cc2cc3ccccc3nc2C1 (stereo unspecified)", "16.4 µM (inactive)"],
  ["C=C(C)[C@@]1(O)CCCC[C@@H]1CC(Sc1ccccc1)Sc1ccccc1", "15.7 µM (inactive)"],
  ["NC(=O)C(=CNC(N)=S)C(N)=O", "> 100 µM (inactive)"],
  ["COc1cc2c[n+](C)c3c4ccccc4ccc3c2cc1OC.COc1cc2cnc3c4ccccc4ccc3c2cc1OC", "5.68 µM (inactive)"],
  ["CC(CC(C)[C@H]1CCC2[C@H]3C(CC(=O)[C@@]21C)[C@@]1(C)CCC(O)C[C@H]1C[C@@H]3O)C(=O)O (stereo partly specified)", "> 100 µM (inactive)"],
  ["COC(=O)c1c(OC)cc2cc3c(c(O)c2c1C)C(=O)C1(O)C(=O)C=C(OC)C(OC(=O)CC(C)N)=C1C3=O (stereo unspecified)", "11.6 µM (inactive)"],
  ["Cc1cn(C2CC(n3cc(Cn4cc(F)c(=O)[nH]c4=O)nn3)C(CO)O2)c(=O)[nH]c1=O (stereo unspecified)", "> 100 µM (inactive)"],
  ["O=c1cc(-c2ccccc2)c2ccc(O)c(CN(CCCl)CCCl)c2o1", "33.6 µM (inactive)"],
  ["CN(C)Cc1cc(C(C)(C)C)ccc1-c1ccc(C(C)(C)C)cc1CN(C)C", "> 100 µM (inactive)"],
  ["CCCCCCOP(=O)(OCCCCCC)OC(C(=O)OC)C(F)(F)F (stereo unspecified)", "> 100 µM (inactive)"],
  ["O=[N+]([O-])c1ccc(/N=N\\c2c(O)c(S(=O)(=O)O)cc3cc(S(=O)(=O)O)ccc23)cc1", "> 100 µM (inactive)"],
  ["Oc1c(Br)cc(/C=C/c2ccnc(/C=C/c3cc(Br)c(O)c(Br)c3)c2)cc1Br", "20.4 µM (inactive)"],
  ["COC(=O)C(Cc1ccccc1)NP(=O)(O)OCC1OC(n2ccc(N)nc2=O)C(O)C1O (stereo unspecified)", "> 100 µM (inactive)"],
  ["CC1CN=C(N(C(=O)Nc2ccccc2)c2ccccc2)S1 (stereo unspecified)", "53.2 µM (inactive)"],
  ["COc1cc([C@@H]2c3cc4c(cc3[C@@H](Nc3ccc(NC(=O)c5cc([N+](=O)[O-])cn5C)cc3)[C@H]3COC(=O)[C@H]23)OCO4)cc(OC)c1O", "0.0143 µM (active)"],
  ["CCOC(=O)CCc1c(C)nc2c(C)c3c([nH]c4ccc(Cl)cc43)c(C)c2c1O", "25.5 µM (inactive)"],
  ["CCOC1NC(=O)Oc2cc3ccccc3cc21 (stereo unspecified)", "> 100 µM (inactive)"],
  ["O=C(O)c1ccc(NS(=O)(=O)Cc2ccccc2)cc1", "> 100 µM (inactive)"],
  ["O=C(NC1C/C(=N/O)c2c(Br)sc(Br)c21)C(F)(F)F (stereo unspecified)", "27.5 µM (inactive)"],
  ["[N-]=[N+]=Nc1c(Cc2ccccc2)c(=O)oc2ccccc12", "51.9 µM (inactive)"],
  ["COc1cc(C=O)cc(/C=N/N=C/c2ccccc2O)c1O", "66.4 µM (inactive)"],
  ["c1ccc(C2CC(NC3CCCCC3)=Nc3ccccc3N2)cc1 (stereo unspecified)", "> 100 µM (inactive)"],
  ["O=C(O)c1ccc(NCc2nc3cc4ccccc4cc3[nH]2)cc1", "> 100 µM (inactive)"],
  ["CC1C(=O)N(c2ccccc2)NC12CCCc1ccccc12 (stereo unspecified)", "> 100 µM (inactive)"],
  ["CCOC(=O)c1sc2c(c1OC(=O)c1cccs1)c(=O)n(-c1ccccc1)c(=S)n2-c1ccccc1", "20.5 µM (inactive)"],
  ["COc1cc([C@@H]2c3cc4c(cc3[C@@H](Nc3ccc(Cl)cc3C(=O)c3ccccc3)[C@H]3COC(=O)[C@H]23)OCO4)cc(OC)c1OC", "0.428 µM (active)"],
  ["Cn1ncc2c(NCc3ccccc3)ncnc21", "> 100 µM (inactive)"],
  ["O=c1cc(/N=N\\c2ccc(Br)cc2)[nH]c(=S)[nH]1", "61.1 µM (inactive)"],
  ["CC(=O)OC1=CC(n2cc(F)c(=O)[nH]c2=O)OC(C)C1=O (stereo unspecified)", "21.6 µM (inactive)"],
  ["CCSC(=O)/C=C1\\CN(C(=O)OC(C)(C)C)C1C(=O)OC(C)(C)C (stereo unspecified)", "4.95 µM (inactive)"],
  ["CC1=NN(C(=O)c2ccccc2O)C(c2ccccc2Cl)C1C(=O)Nc1ccccc1 (stereo unspecified)", "< 0.0291 µM (active)"]
]}
